- ASSAY: Experimental logP by HPLC method
- Assay type: physicochemical
- CONDITION CONTEXT: read-out: Exp. logP
MEASUREMENT LABEL: chromatographic logP
Just the number, please, no unit after it.

Entry CC(=O)N1CCC(NC(=O)NC23CC4CC(CC(C4)C2)C3)CC1 [APAU, reference compound] : reported chromatographic logP = ?
1.5

Entry O=C(Nc1ccc(OC(F)(F)F)cc1)NC1CCN(C(=O)C2CCOCC2)CC1 : reported chromatographic logP = ?
3.26

Entry O=C(Nc1ccc(OC(F)(F)F)c(F)c1)NC1CCN(C(=O)C2CC2)CC1 : reported chromatographic logP = ?
4.19

Entry Cc1occc1C(=O)N1CCC(NC(=O)Nc2ccc(OC(F)(F)F)cc2)CC1 : reported chromatographic logP = ?
4.3

###

- ASSAY: Solubility in Phosphate Buffer at pH 7.4
- Assay type: physicochemical
- CONDITION CONTEXT: aqueous buffer; Phosphate Buffer at pH 7.4
MEASUREMENT LABEL: solubility (µg/mL)
Respond numerically; units are µg/mL and should not be typed.

Entry CC(=O)N1CCC(NC(=O)NC23CC4CC(CC(C4)C2)C3)CC1 [APAU, reference compound] : reported solubility = ?
277

###

- STUDY SYSTEM: UniProt P34913
- Sequence (P34913 whole entry): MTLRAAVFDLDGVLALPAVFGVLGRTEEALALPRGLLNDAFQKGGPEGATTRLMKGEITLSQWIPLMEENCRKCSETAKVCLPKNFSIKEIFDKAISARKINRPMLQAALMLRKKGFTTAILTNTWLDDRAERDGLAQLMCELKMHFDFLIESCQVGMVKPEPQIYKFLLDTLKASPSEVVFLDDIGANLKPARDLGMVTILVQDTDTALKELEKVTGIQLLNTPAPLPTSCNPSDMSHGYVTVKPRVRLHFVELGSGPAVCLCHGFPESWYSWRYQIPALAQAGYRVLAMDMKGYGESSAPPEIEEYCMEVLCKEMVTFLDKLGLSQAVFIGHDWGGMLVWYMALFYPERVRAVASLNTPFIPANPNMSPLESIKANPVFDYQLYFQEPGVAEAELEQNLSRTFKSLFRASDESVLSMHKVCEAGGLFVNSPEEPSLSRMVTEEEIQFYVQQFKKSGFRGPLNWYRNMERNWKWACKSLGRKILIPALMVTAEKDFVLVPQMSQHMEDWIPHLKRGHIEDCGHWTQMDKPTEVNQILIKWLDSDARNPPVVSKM
- ASSAY: FRET-displacement assay (Ki)
- Format: binding
- CONDITION CONTEXT: affinity purified recombinant human sEH, FRET-displacement
MEASUREMENT LABEL: Ki
Please don't drop the unit; write it after the number.

Notebook entry, UniProt P34913 assay: Ki of O=C(Nc1ccc(OC(F)(F)F)c(F)c1)Nc1ccc(OC(F)(F)F)c(F)c1 = ?
1.95 nM

Notebook entry, UniProt P34913 assay: Ki of O=C(Nc1ccc(OC(F)(F)F)c(F)c1)NC1CCN(C(=O)N2CCC(NC(=O)Nc3ccc(OC(F)(F)F)c(F)c3)CC2)CC1 = ?
10.1 nM

###

- ASSAY: Experimental logP by HPLC method
- Assay type: physicochemical
- CONDITION CONTEXT: HPLC method calibrated with eLogP of 4 selected inhibitors determined by shake-flask method; read-out: Exp. logP
Decide by chromatographic logP: equal to or exceeding 6 means yes (1), less means no (0).

Kindly determine if chromatographic logP recorded for O=C(Nc1ccc(C(F)(F)F)c(F)c1)NC1CCN(C(=O)C2CCOCC2)CC1 [Compound 37] is above or exactly 6.
no (0)

Kindly determine if chromatographic logP recorded for CC[C@H](C)C(=O)N1CCC(NC(=O)Nc2ccc(OC(F)(F)F)c(Br)c2)CC1 [Compound 45] is above or exactly 6.
yes (1)

Kindly determine if chromatographic logP recorded for O=C(Nc1ccc(OC(F)(F)F)c(F)c1)NC1CCN(C(=O)C2CCOCC2)CC1 [Compound 29] is above or exactly 6.
no (0)

Kindly determine if chromatographic logP recorded for CC[C@H](C)C(=O)N1CCC(NC(=O)Nc2ccc(OC(F)(F)F)c(Cl)c2)CC1 [Compound 44] is above or exactly 6.
yes (1)

Kindly determine if chromatographic logP recorded for O=C(Nc1ccc(C(F)(F)F)c(F)c1)NC1CCN(C(=O)C2(C(F)(F)F)CC2)CC1 [Compound 36] is above or exactly 6.
no (0)

Kindly determine if chromatographic logP recorded for CC[C@H](C)C(=O)N1CCC(NC(=O)Nc2ccc(OC(F)(F)F)c(OC(F)(F)F)c2)CC1 [Compound 47] is above or exactly 6.
yes (1)

Kindly determine if chromatographic logP recorded for CCOC(=O)N1CCC(NC(=O)Nc2ccc(C(F)(F)F)c(F)c2)CC1 [Compound 41] is above or exactly 6.
no (0)
